Tested on: NCI-H2085
Experiment: relative viability (nuclei count vs DMSO), 5 days (fraction); higher = more cells survive
Details: first compound 0.253 µM
Parameter: relative viability. Scope: all listed entries.
# answer = number (no unit)

The following compounds have reported results that may help.
{"COMPOUND": "C=C1C(=O)O[C@@H](CCCCCCCC)[C@@H]1C(=O)O [C-75] + CC(C)C[C@H](NC(=O)[C@H](Cc1ccccc1)NC(=O)c1cnccn1)B(O)O [Bortezomib] (partner 0.002 µM)", "REPORTED_RESULT": 0.882}
{"COMPOUND": "Oc1nc(-c2ccc(C(F)(F)F)cc2)nc2c1CSCC2 [XAV939] + Nc1ncn([C@H]2C[C@H](O)[C@@H](CO)O2)c(=O)n1 [Decitabine] (partner 2 µM)", "REPORTED_RESULT": 0.494}
{"COMPOUND": "C=C1C(=O)O[C@@H](CCCCCCCC)[C@@H]1C(=O)O [C-75] + Nc1ncn([C@H]2C[C@H](O)[C@@H](CO)O2)c(=O)n1 [Decitabine] (partner 2 µM)", "REPORTED_RESULT": 0.587}

QUERY: Reported relative viability, compound C=C1C(=O)O[C@@H](CCCCCCCC)[C@@H]1C(=O)O [C-75] + CCNC(=O)c1noc(-c2cc(C(C)C)c(O)cc2O)c1-c1ccc(CN2CCOCC2)cc1 [Luminespib] (partner 0.01 µM) : ____
RESULT: 0.416

---

Tested on: HOP-62
Experiment: relative viability (nuclei count vs DMSO), 5 days (fraction); higher = more cells survive
Settings: first compound 0.4 µM
ASSAY_READOUT: relative viability
# answer = number (no unit)

{"MOLECULE": "O=C(O)c1ccc(-c2c[nH]c3ncc(-c4ccccc4)cc23)cc1C1CCCC1 + COc1cc2c(Oc3ccc(NC(=O)C4(C(=O)Nc5ccc(F)cc5)CC4)cc3F)ccnc2cc1OCCCN1CCOCC1 [Foretinib] (partner 0.25 µM)", "REPORTED_RESULT": 1.01}
{"MOLECULE": "O=C(O)c1ccc(-c2c[nH]c3ncc(-c4ccccc4)cc23)cc1C1CCCC1 + CC(C)C[C@H](NC(=O)[C@H](Cc1ccccc1)NC(=O)c1cnccn1)B(O)O [Bortezomib] (partner 0.002 µM)", "REPORTED_RESULT": 0.93}
{"MOLECULE": "O=C(O)c1ccc(-c2c[nH]c3ncc(-c4ccccc4)cc23)cc1C1CCCC1 + N=C(N)NC(=N)NCCc1ccccc1 [Phenformin] (partner 250 µM)", "REPORTED_RESULT": 0.611}
{"MOLECULE": "O=C(O)c1ccc(-c2c[nH]c3ncc(-c4ccccc4)cc23)cc1C1CCCC1 + CC(=O)Nc1cccc(-n2c(=O)n(C3CC3)c(=O)c3c(Nc4ccc(I)cc4F)n(C)c(=O)c(C)c32)c1 [Trametinib] (partner 0.02 µM)", "REPORTED_RESULT": 0.412}

Query molecule follows.
QUERY: Reported relative viability, molecule O=C(O)c1ccc(-c2c[nH]c3ncc(-c4ccccc4)cc23)cc1C1CCCC1 + O=C(CCCCCCC(=O)Nc1ccccc1)NO [Vorinostat] (partner 1 µM) : ____
RESULT: 0.594

---

Parameter: relative viability. Scope: all listed entries.
Tested on: NCI-H520
Test: relative viability (nuclei count vs DMSO), 5 days (fraction); higher = more cells survive
Details: first compound 0.03162 µM
# answer = number (no unit)

The following molecules have reported results that may help.
{"MOLECULE": "NC(=O)Nc1cc(-c2cccc(F)c2)sc1C(=O)N[C@H]1CCCNC1 [AZD7762] + COc1cccc2cc(-c3nc([C@H]4CC[C@H](C(=O)O)CC4)n4ncnc(N)c34)[nH]c12 [OSI-027] (partner 0.5 µM)", "MEASURED_TARGET": "NCI-H520", "relative viability": 0.246}
{"MOLECULE": "NC(=O)Nc1cc(-c2cccc(F)c2)sc1C(=O)N[C@H]1CCCNC1 [AZD7762] + Cc1nc(NC(=O)N2CCC[C@H]2C(N)=O)sc1-c1ccnc(C(C)(C)C(F)(F)F)c1 [Alpelisib] (partner 2 µM)", "MEASURED_TARGET": "NCI-H520", "relative viability": 1.04}
{"MOLECULE": "NC(=O)Nc1cc(-c2cccc(F)c2)sc1C(=O)N[C@H]1CCCNC1 [AZD7762] + CS(=O)(=O)CCNCc1ccc(-c2ccc3ncnc(Nc4ccc(OCc5cccc(F)c5)c(Cl)c4)c3c2)o1 [Lapatinib] (partner 2 µM)", "MEASURED_TARGET": "NCI-H520", "relative viability": 0.864}

QUERY: Reported relative viability, molecule NC(=O)Nc1cc(-c2cccc(F)c2)sc1C(=O)N[C@H]1CCCNC1 [AZD7762] + COc1cc2c(Oc3ccc(NC(=O)C4(C(=O)Nc5ccc(F)cc5)CC4)cc3F)ccnc2cc1OCCCN1CCOCC1 [Foretinib] (partner 0.25 µM) : ____
RESULT: 0.826

---

System: NCI-H596
Assay: relative viability (nuclei count vs DMSO), 5 days (fraction); higher = more cells survive
Settings: first compound 0.4 µM
ASSAY_READOUT: relative viability
# answer = number (no unit)

The following molecules have reported results that may help.
{"MOLECULE": "O=C(O)c1ccc(-c2c[nH]c3ncc(-c4ccccc4)cc23)cc1C1CCCC1 + Nc1ncn([C@H]2C[C@H](O)[C@@H](CO)O2)c(=O)n1 [Decitabine] (partner 2 µM)", "REPORTED_RESULT": 1.01}
{"MOLECULE": "O=C(O)c1ccc(-c2c[nH]c3ncc(-c4ccccc4)cc23)cc1C1CCCC1 + C[C@@H](Oc1cc(-c2cnn(C3CCNCC3)c2)cnc1N)c1c(Cl)ccc(F)c1Cl [Crizotinib] (partner 1 µM)", "REPORTED_RESULT": 0.909}
{"MOLECULE": "O=C(O)c1ccc(-c2c[nH]c3ncc(-c4ccccc4)cc23)cc1C1CCCC1 + O=C(c1cc(Cc2n[nH]c(=O)c3ccccc23)ccc1F)N1CCN(C(=O)C2CC2)CC1 [Olaparib] (partner 8 µM)", "REPORTED_RESULT": 0.749}

QUERY: Reported relative viability, molecule O=C(O)c1ccc(-c2c[nH]c3ncc(-c4ccccc4)cc23)cc1C1CCCC1 + CS(=O)(=O)CCNCc1ccc(-c2ccc3ncnc(Nc4ccc(OCc5cccc(F)c5)c(Cl)c4)c3c2)o1 [Lapatinib] (partner 2 µM) : ____
RESULT: 0.979

---

Tested on: NCI-H1563
Test: relative viability (nuclei count vs DMSO), 5 days (fraction); higher = more cells survive
Settings: first compound 0.3162 µM
ASSAY_READOUT: relative viability
# answer = number (no unit)

{"COMPOUND": "NC(=O)Nc1cc(-c2cccc(F)c2)sc1C(=O)N[C@H]1CCCNC1 [AZD7762] + CCNC(=O)c1noc(-c2cc(C(C)C)c(O)cc2O)c1-c1ccc(CN2CCOCC2)cc1 [Luminespib] (partner 0.01 µM)", "relative viability": 0.505}
{"COMPOUND": "NC(=O)Nc1cc(-c2cccc(F)c2)sc1C(=O)N[C@H]1CCCNC1 [AZD7762] + Nc1nc2[nH]cc(CCc3ccc(C(=O)N[C@@H](CCC(=O)O)C(=O)O)cc3)c2c(=O)[nH]1 [Pemetrexed] (partner 0.2 µM)", "relative viability": 0.693}

QUERY: Reported relative viability, compound NC(=O)Nc1cc(-c2cccc(F)c2)sc1C(=O)N[C@H]1CCCNC1 [AZD7762] + Cc1nc(Nc2ncc(C(=O)Nc3c(C)cccc3Cl)s2)cc(N2CCN(CCO)CC2)n1 [Dasatinib] (partner 0.075 µM) : ____
RESULT: 0.524

QUERY: Input NC(=O)Nc1cc(-c2cccc(F)c2)sc1C(=O)N[C@H]1CCCNC1 [AZD7762] + COc1cc2c(Oc3ccc(NC(=O)C4(C(=O)Nc5ccc(F)cc5)CC4)cc3F)ccnc2cc1OCCCN1CCOCC1 [Foretinib] (partner 0.25 µM)
RESULT: 0.94

---

Tested on: SK-MES-1
Assay: relative viability (nuclei count vs DMSO), 5 days (fraction); higher = more cells survive
Conditions: first compound 0.5 µM
Parameter: relative viability. Scope: all listed entries.
# answer = number (no unit)

The following molecules have reported results that may help.
{"MOLECULE": "CC1(C)CCC(c2ccc(Cl)cc2)=C(CN2CCN(c3ccc(C(=O)NS(=O)(=O)c4ccc(N[C@H](CCN5CCOCC5)CSc5ccccc5)c(S(=O)(=O)C(F)(F)F)c4)cc3)CC2)C1 [Navitoclax] + CS(=O)(=O)N1CCN(Cc2cc3nc(-c4cccc5[nH]ncc45)nc(N4CCOCC4)c3s2)CC1 [Pictilisib] (partner 1 µM)", "ASSAY_READOUT": "relative viability", "REPORTED_RESULT": 0.334}
{"MOLECULE": "CC1(C)CCC(c2ccc(Cl)cc2)=C(CN2CCN(c3ccc(C(=O)NS(=O)(=O)c4ccc(N[C@H](CCN5CCOCC5)CSc5ccccc5)c(S(=O)(=O)C(F)(F)F)c4)cc3)CC2)C1 [Navitoclax] + COc1cc2c(Oc3ccc(NC(=O)C4(C(=O)Nc5ccc(F)cc5)CC4)cc3F)ccnc2cc1OCCCN1CCOCC1 [Foretinib] (partner 0.25 µM)", "ASSAY_READOUT": "relative viability", "REPORTED_RESULT": 1.04}
{"MOLECULE": "CC1(C)CCC(c2ccc(Cl)cc2)=C(CN2CCN(c3ccc(C(=O)NS(=O)(=O)c4ccc(N[C@H](CCN5CCOCC5)CSc5ccccc5)c(S(=O)(=O)C(F)(F)F)c4)cc3)CC2)C1 [Navitoclax] + C[C@]1(O)C[C@@H](c2nc(-c3ccc4ccc(-c5ccccc5)nc4c3)c3c(N)nccn32)C1 [Linsitinib] (partner 1 µM)", "ASSAY_READOUT": "relative viability", "REPORTED_RESULT": 1.1}
{"MOLECULE": "CC1(C)CCC(c2ccc(Cl)cc2)=C(CN2CCN(c3ccc(C(=O)NS(=O)(=O)c4ccc(N[C@H](CCN5CCOCC5)CSc5ccccc5)c(S(=O)(=O)C(F)(F)F)c4)cc3)CC2)C1 [Navitoclax] + C[C@@H](Oc1cc(-c2cnn(C3CCNCC3)c2)cnc1N)c1c(Cl)ccc(F)c1Cl [Crizotinib] (partner 1 µM)", "ASSAY_READOUT": "relative viability", "REPORTED_RESULT": 0.978}
{"MOLECULE": "CC1(C)CCC(c2ccc(Cl)cc2)=C(CN2CCN(c3ccc(C(=O)NS(=O)(=O)c4ccc(N[C@H](CCN5CCOCC5)CSc5ccccc5)c(S(=O)(=O)C(F)(F)F)c4)cc3)CC2)C1 [Navitoclax] + COc1cccc2cc(-c3nc([C@H]4CC[C@H](C(=O)O)CC4)n4ncnc(N)c34)[nH]c12 [OSI-027] (partner 0.5 µM)", "ASSAY_READOUT": "relative viability", "REPORTED_RESULT": 0.63}

QUERY: Reported relative viability, molecule CC1(C)CCC(c2ccc(Cl)cc2)=C(CN2CCN(c3ccc(C(=O)NS(=O)(=O)c4ccc(N[C@H](CCN5CCOCC5)CSc5ccccc5)c(S(=O)(=O)C(F)(F)F)c4)cc3)CC2)C1 [Navitoclax] + CC(=O)Nc1cccc(-n2c(=O)n(C3CC3)c(=O)c3c(Nc4ccc(I)cc4F)n(C)c(=O)c(C)c32)c1 [Trametinib] (partner 0.02 µM) : ____
RESULT: 0.654
